- assayed target: aurora B (Homo sapiens)
- experiment notes: radioisotope-based P81 filter-binding assay, aurora B kinase
- Assay type: biochemical
- test parameters: averaged from two independent dose-response curves; read-out: Enzyme assay IC50 Aur B
parameter measured: IC50 (nM)

| molecule | unit of measurement | quantitative result |
| --- | --- | --- |
| O=C(NC(=O)c1ccccc1F)Nc1ccc2c(c1)NC(=O)/C2=C\c1ccc[nH]1 [D52] | nM | 6.5 |

(a) COc1ccc(N2CCN(C(=O)Nc3ccc4c(c3)NC(=O)/C4=C\c3ccc[nH]3)C2=O)c(F)c1 [D94]
(b) CN(C)c1ccc(N2CCN(C(=O)Nc3ccc4c(c3)NC(=O)/C4=C\c3ccc[nH]3)C2=O)cc1 [D93]
(c) COc1ccc(C(=O)NC(=O)Nc2ccc3c(c2)NC(=O)/C3=C\c2[nH]c(C)c(C(=O)NCCN(C)C)c2C)c(F)c1 [D68]
Request: Sort entries by IC50 from minimum to maximum value. Use the labels to give the ranking in the order requested.
Result: a, c, b

(A) COc1ccc(C(=O)NC(=O)Nc2ccc3c(c2)NC(=O)/C3=C\c2[nH]c(C)c(C(=O)N3CCN(C)CC3)c2C)c(F)c1 [D64]
(B) Cc1ccc(C(=O)NC(=O)Nc2ccc3c(c2)NC(=O)/C3=C\c2ccc[nH]2)cc1 [D29]
Request: Form: Entry with minimum IC50 (choose one): A / B Respond with the label that goes with your answer.
Result: B
(B: 18.4 nM, A: 30.6 nM)

---

- assayed target: aurora B (Homo sapiens)
- experiment notes: radioisotope-based P81 filter-binding assay, aurora B kinase
- Type: biochemical
- test parameters: averaged from two independent dose-response curves; read-out: Enzyme assay IC50 Aur B
parameter measured: IC50 (nM)

Below are worked cases with known answers.
| smiles text | quantitative result |
| --- | --- |
| Cc1ccc(C(=O)NC(=O)Nc2ccc3c(c2)NC(=O)/C3=C\c2[nH]c(C)c(C(=O)O)c2C)cc1 | 2.5 |
| Cc1[nH]c(/C=C2\C(=O)Nc3cc(NC(=O)NC(=O)c4ccc(Cl)c(C(F)(F)F)c4)ccc32)c(C)c1C(=O)O | 10.7 |
| O=C1Nc2cc(NC(=O)c3c[nH]cc(-c4ccccc4F)c3=O)ccc2/C1=C/c1ccc[nH]1 | 25.5 |

(I) O=C1Nc2cc(NC(=O)c3cccn(CCO)c3=O)ccc2/C1=C/c1ccc[nH]1
(II) COc1ccc(-c2c[nH]cc(C(=O)Nc3ccc4c(c3)NC(=O)/C4=C\c3ccc[nH]3)c2=O)cc1
(III) O=C1Nc2cc(NC(=O)c3cccn(-c4cccc(Cl)c4)c3=O)ccc2/C1=C/c1ccc[nH]1
(IV) Cc1[nH]c(/C=C2\C(=O)Nc3cc(NC(=O)c4c[nH]cc(-c5ccc(F)cc5)c4=O)ccc32)c(C)c1C(=O)N1CCOCC1
Request: Output the entries ranked by IC50 from maximum down to minimum. Please respond by ranking the labels in the order requested.
Result: III, I, II, IV

---

Recorded melting point for the following compounds

For COc1ccc(-c2c[nH]cc(C(=O)Nc3ccc4c(c3)NC(=O)/C4=C\c3[nH]c(C)c(C(=O)N4CCOCC4)c3C)c2=O)cc1 the compound record lists melting point as 205 °C (dec.)

---

- assayed target: FLT-3 (Homo sapiens, UniProt P36888)
- Sequence (P36888 27-993): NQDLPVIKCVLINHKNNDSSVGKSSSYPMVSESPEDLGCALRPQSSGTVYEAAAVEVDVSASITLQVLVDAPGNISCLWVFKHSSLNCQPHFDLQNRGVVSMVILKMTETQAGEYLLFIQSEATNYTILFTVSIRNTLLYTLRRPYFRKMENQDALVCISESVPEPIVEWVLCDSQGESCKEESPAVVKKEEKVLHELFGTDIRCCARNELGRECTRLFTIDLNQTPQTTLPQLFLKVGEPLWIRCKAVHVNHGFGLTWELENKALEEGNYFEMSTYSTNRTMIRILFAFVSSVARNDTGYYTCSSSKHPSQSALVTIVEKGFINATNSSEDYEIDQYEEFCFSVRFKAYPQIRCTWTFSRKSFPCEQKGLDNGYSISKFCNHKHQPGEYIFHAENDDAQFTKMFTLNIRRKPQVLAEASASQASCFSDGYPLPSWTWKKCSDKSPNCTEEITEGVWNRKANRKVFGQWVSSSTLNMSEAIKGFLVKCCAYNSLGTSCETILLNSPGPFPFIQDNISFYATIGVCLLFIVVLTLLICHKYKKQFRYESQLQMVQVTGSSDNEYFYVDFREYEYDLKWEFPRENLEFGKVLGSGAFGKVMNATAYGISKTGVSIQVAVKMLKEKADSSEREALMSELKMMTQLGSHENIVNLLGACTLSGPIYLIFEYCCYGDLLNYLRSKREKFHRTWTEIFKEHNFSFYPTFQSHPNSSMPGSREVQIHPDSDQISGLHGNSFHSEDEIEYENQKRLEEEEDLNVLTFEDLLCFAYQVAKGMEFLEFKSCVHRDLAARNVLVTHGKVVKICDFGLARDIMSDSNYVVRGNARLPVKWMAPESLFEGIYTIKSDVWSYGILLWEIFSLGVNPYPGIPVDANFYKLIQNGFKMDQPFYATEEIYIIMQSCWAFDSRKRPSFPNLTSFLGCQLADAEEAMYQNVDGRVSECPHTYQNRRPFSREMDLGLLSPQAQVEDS
parameter measured: IC50 (nM)

// worked examples, IC50 included
| smiles text | unit of measurement | IC50 |
| --- | --- | --- |
| O=C1Nc2cc(NC(=O)c3c[nH]cc(-c4ccc(C(F)(F)F)cc4)c3=O)ccc2/C1=C/c1ccc[nH]1 | nM | 100 |
| Cc1[nH]c(/C=C2\C(=O)Nc3cc(NC(=O)c4c[nH]cc(-c5ccc(F)cc5)c4=O)ccc32)c(C)c1CCC(=O)O | nM | 1.6 |

(a) Cc1[nH]c(/C=C2\C(=O)Nc3cc(NC(=O)c4c[nH]cc(-c5ccc(F)cc5)c4=O)ccc32)c(C)c1CCC(=O)N1CCN(C)CC1
(b) COc1ccc(C(=O)NC(=O)Nc2ccc3c(c2)NC(=O)/C3=C\c2[nH]c(C)c(C(=O)NCCN3CCCC3)c2C)c(F)c1
Request: Compare the recorded IC50 of a and b ; state which is larger. Choose, then provide that item's label.
Result: a
(a: 4.8 nM, b: 0.5 nM)

---

- assayed target: aurora B (Homo sapiens, UniProt Q96GD4)
- Sequence (Q96GD4 whole entry): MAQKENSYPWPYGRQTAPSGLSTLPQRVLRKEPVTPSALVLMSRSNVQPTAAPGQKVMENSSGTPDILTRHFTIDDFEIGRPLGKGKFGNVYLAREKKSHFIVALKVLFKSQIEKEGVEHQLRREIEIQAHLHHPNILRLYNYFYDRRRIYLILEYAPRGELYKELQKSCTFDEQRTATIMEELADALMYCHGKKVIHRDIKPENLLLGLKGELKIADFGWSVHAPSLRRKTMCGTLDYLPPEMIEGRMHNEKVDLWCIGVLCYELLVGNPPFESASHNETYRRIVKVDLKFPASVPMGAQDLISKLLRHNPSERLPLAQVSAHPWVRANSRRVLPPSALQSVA
- experiment notes: radioisotope-based P81 filter-binding assay, aurora B kinase
- Type: biochemical
- test parameters: averaged from two independent dose-response curves; read-out: Enzyme assay IC50 Aur B
pIC50: −log10 of the molar value.
parameter measured: pIC50

| smiles text | pIC50 |
| --- | --- |
| COc1ccc(-c2c[nH]cc(C(=O)Nc3ccc4c(c3)NC(=O)/C4=C\c3[nH]c(C)c(C(=O)N4CCN(C)CC4)c3C)c2=O)cc1 | 6.87 |

(P) CN1CCN(C(=O)Nc2ccc3c(c2)NC(=O)/C3=C\c2ccc[nH]2)C1=O
(Q) COc1ccc(C(=O)NC(=O)Nc2ccc3c(c2)NC(=O)/C3=C\c2[nH]c(C)c(CCC(=O)N3CCOCC3)c2C)c(F)c1
(R) O=C1Nc2cc(NC(=O)c3c[nH]cc(-c4ccc(Cl)cc4)c3=O)ccc2/C1=C/c1ccc[nH]1
Request: Rank entries according to their pIC50, from the largest number down. List labels; respect the requested ordering.
Result: Q, R, P
(Q: 7.79, R: 7.27, P: 5.96)

---

parameter measured: melting point

Guide cases for melting point, answers given:
| compound | melting point |
| --- | --- |
| COc1ccc(C(=O)NC(=O)Nc2ccc3c(c2)NC(=O)/C3=C\c2[nH]c(C)c(CCC(=O)N3CCOCC3)c2C)c(F)c1 | 248 to 253 °C (dec.) |
| COc1ccc(C(=O)NC(=O)Nc2ccc3c(c2)NC(=O)C3=Cc2ccco2)cc1 (stereo in doubt) | 278 to 283 °C (dec.) |
| COc1ccc(C(=O)NC(=O)Nc2ccc3c(c2)NC(=O)/C3=C\c2[nH]c(C)c(C(=O)N3CCOCC3)c2C)c(F)c1 | 273 to 278 °C (dec.) |
| COc1ccc(N2CCN(C(=O)Nc3ccc4c(c3)NC(=O)/C4=C\c3ccc[nH]3)C2=O)cc1 | 294 to 299 °C (dec.) |
| Cc1ccc(-n2cccc(C(=O)Nc3ccc4c(c3)NC(=O)/C4=C\c3ccc[nH]3)c2=O)cc1 | > 300 °C |
| COc1ccc(C(=O)NC(=O)Nc2ccc3c(c2)NC(=O)/C3=C/c2ccc(Cl)cc2)cc1 | 278 to 283 °C (dec.) |
| O=C1Nc2cc(NC(=O)c3c[nH]cc(-c4ccc(C(F)(F)F)cc4)c3=O)ccc2/C1=C/c1ccc[nH]1 | > 300 °C |
| Cc1cc(C(=O)O)[nH]c1/C=C1\C(=O)Nc2cc(NC(=O)c3c[nH]cc(-c4ccc(F)cc4)c3=O)ccc21 | 243 °C |
| O=C1Nc2cc(NC(=O)c3c[nH]cc(-c4ccccc4F)c3=O)ccc2/C1=C/c1ccc[nH]1 | > 300 °C |
| O=C1Nc2cc(NC(=O)c3c[nH]cc(-c4ccc(F)cc4)c3=O)c(F)cc2/C1=C/c1ccc[nH]1 | > 300 °C |

Next item in the queue.
What the record says about COC(=O)CCc1c(C)[nH]c(/C=C2\C(=O)Nc3cc(NC(=O)c4cccn(-c5ccc(F)cc5)c4=O)ccc32)c1C : melting point is 266 to 270 °C
